- Measurement protocol: Phase I open-label drug-drug interaction study: single-dose plasma pharmacokinetics of compound 1 before and after repeat doses of rifampicin
- Assay type: in vivo, human
- Particulars: male, human, plasma, po, 600 mg, healthy male subjects, single oral 600 mg compound 1, after multiple rifampin doses 600 mg q.d. 10 days (Day 12), N = 18, arithmetic mean
Assay readout: Cmax (ng/mL)
Please reply with the bare figure in ng/mL and do not write the unit itself.

Looking for the measured Cmax of CCc1nc2c(C)cc(N3CCN(CC(=O)N4CC(O)C4)CC3)cn2c1N(C)c1nc(-c2ccc(F)cc2)c(C#N)s1 [Compound 1] , can you help? 1440

Numbers sourced from patent US20210315887A1.
